Molecular target: T1, Ec FmlHLD
T1 chain: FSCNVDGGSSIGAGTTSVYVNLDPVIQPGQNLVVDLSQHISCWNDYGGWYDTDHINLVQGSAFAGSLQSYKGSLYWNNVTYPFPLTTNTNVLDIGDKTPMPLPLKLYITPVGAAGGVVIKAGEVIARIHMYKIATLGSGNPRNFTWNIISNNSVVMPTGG
Test: ELISA
Note to self: EC50 under 0.01 µg/mL means true, ties and anything higher get false.

- BINDER: "Kp 2D10 (antibody, V domains shown) VH: EVQLQQSGAELVKPGASVKLSCKASGYTFTTYWMHWMKQWPGQGLEWIGLIHPNSGSTYYNEKFKSKATLTVDKSSSTAYMQLSSLTSEDSAVYYCARFEELWGGYWYFDVWGTGTTVTVSS VL: QIVLTQSPALMAASPGEKVTITCSVSSSISSSNLHWYQQKSETSPKPWIYGTSNLASGVPVRFSGSGSGTSYSLTISSMEAEDAATYYCQQWSSYPYTFGGGTKLEIKR"
  ASSIGNED CATEGORY: "false"
- BINDER: "2G04 (antibody, V domains shown) VH: EVQLQQPGPELVKPGSSLKISCKASGYTFTDYFINWVKQRPGQGLDWIGWIFPGSGSTYYNDKFKGKATLTVDKSSSTAYMLLSSLTSEASAVYFCARWDSDSTYWYFDVWGTGTTVTVSS VL: QIVLTQSPALMAASPGEKVTITCSVNSSISSSTLHWYQQKSQTSPKPWIYGTSNLASGVPIRFSGSGSGTSYSLTISSMEAEDAATYYCQQWSTYPYTFGGGTKLEIKR"
  ASSIGNED CATEGORY: "false"
- BINDER: "Ec1 F7 (antibody, V domains shown) VH: EVQLQQPGPVLVKPGPSVKISCKASGFTFTDYFIHWVKQSHGKSLEWIGLVSPYNGGTYYNQQFKGKATLTVDTSSSTAYMDLNSLTSEDSAVYYCTRLLRGYWYFDVWGTGTTVTVSS VL: QIVLTQSPALMAASPGEKVTITCSVSSSIGSSNLHWYQQKSETSPKPWIYGTSNLASGVPVRFSGSGSGTSYSLTISSMEAEDAATYYCQQWSTYPYTFGGGTKLEIKR"
  ASSIGNED CATEGORY: "true"
- BINDER: "Kp1 1A02 (antibody, V domains shown) VH: EVQLQQSGPVLVKPGPSMKISCKASGFTFTDYYIHWVRQSHGKSLEWIGLVSPYNGGTYYNQKFKGKATLTVDSSSSTAYMELSSLTSEDSAVYYCARLGYYGDWYYFDYWGQGTPLTVSS VL: QIVLTQSPALMATSPGEKVTITCSVSSSISSSNLNWYQQKSETSPKPWIYGTSNLASGVPVRFSGSGSGTSYSLTISSMEAEDAATYYCQQWSSYPYTFGGGTKLEIKR"
  ASSIGNED CATEGORY: "false"

Where these numbers come from: patent US20250304662A1
